# System: SK-N-SH
# protocolSummary: Neurotoxicity against human SK-N-SH cells assessed as cell viability at 40 uM after 24 hrs by MTT assay
# Type: toxicity, cell-based
observationType: Activity

The cases that follow already have their Activity on record.
Cc1cc(=O)oc2c1ccc1oc(=N)c(C(=O)NCc3cccc(Br)c3)cc12: Toxic
Cc1cc(=O)oc2c1ccc1oc(=N)c(C(=O)NCc3ccccc3Cl)cc12: Non-toxic
Cc1cc(=O)oc2c1ccc1oc(=N)c(C(=O)NCc3ccccc3Br)cc12: Non-toxic
Cc1cc(=O)oc2c1ccc1oc(=N)c(C(=O)NCc3cccc(Cl)c3)cc12: Non-toxic

We next turn to a different molecule, shown below.
What does the record list as Activity for "Cc1cc(=O)oc2c1ccc1oc(=N)c(C(=O)NCc3ccc(C(C)(C)C)cc3)cc12" ?
Toxic

---

# studyTarget: Acetylcholinesterase (Electrophorus electricus, UniProt O42275)
# Sequence (O42275 whole entry): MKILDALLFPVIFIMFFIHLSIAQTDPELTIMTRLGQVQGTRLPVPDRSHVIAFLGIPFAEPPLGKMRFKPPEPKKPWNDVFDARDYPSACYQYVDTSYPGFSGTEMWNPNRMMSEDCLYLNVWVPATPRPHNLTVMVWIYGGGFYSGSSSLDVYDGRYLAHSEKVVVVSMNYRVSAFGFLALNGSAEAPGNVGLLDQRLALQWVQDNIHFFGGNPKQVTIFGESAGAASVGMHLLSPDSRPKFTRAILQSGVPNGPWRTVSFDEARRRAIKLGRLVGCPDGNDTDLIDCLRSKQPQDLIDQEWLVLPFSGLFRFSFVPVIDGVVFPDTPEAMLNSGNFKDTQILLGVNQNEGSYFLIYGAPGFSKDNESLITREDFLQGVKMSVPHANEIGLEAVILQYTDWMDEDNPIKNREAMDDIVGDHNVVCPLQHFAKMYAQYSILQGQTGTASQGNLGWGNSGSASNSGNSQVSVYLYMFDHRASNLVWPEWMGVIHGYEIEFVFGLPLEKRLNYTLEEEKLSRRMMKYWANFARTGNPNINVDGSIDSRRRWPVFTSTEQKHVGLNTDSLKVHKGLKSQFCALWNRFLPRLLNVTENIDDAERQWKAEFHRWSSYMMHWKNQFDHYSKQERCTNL
# protocolSummary: Mixed-type inhibition of electric eel AChE using acetylthiocholine iodide as substrate assessed as enzyme-substrate complex preincubated for 5 mins followed by substrate addition measured over 6 mins by Lineweaver Burk plot analysis
observationType: pKi
Please keep in mind that pKi is minus log10 of the molar concentration; only the number is needed.

What does the record list as pKi for "Cc1cc(=O)oc2c1ccc1oc(=N)c(C(=O)NCc3cccc(Br)c3)cc12" ?
7.71

---

# studyTarget: UniProt:O42275
# protocolSummary: Mixed-type inhibition of electric eel AChE using acetylthiocholine iodide as substrate assessed as free enzyme preincubated for 5 mins followed by substrate addition measured over 6 mins by Lineweaver Burk plot analysis
observationType: Ki (nM)
Entry rule: numbers only, all in nM.

What does the record list as Ki for "Cc1cc(=O)oc2c1ccc1oc(=N)c(C(=O)NCc3cccc(Br)c3)cc12" ?
10.3

---

observationType: pIC50
Please keep in mind that pIC50 is minus log10 of the molar concentration; only the number is needed.

The cases that follow already have their pIC50 on record.
Cc1cc(=O)oc2c1ccc1oc(=N)c(C(=O)NC(C)c3ccccc3)cc12 (centres undefined): 4.85
Cc1c(C)c2c(c(C)c1O)CCC(C)(C(=O)O)O2 (centres undefined): 4.56
COc1ccc(C(C)NC(=O)c2cc3c(ccc4c(C)cc(=O)oc43)oc2=N)cc1 (centres undefined): 5.04
Cc1cc(=O)oc2c1ccc1oc(=N)c(C(=O)NCc3cccc(Br)c3)cc12: 5.10

We next turn to a different molecule, shown below.
What does the record list as pIC50 for "COc1ccccc1OCCNC(=O)c1cc2c(ccc3c(C)cc(=O)oc32)oc1=N" ?
4.89

---

Measured IC50 on Acetylcholinesterase (Electrophorus electricus, UniProt O42275) follows.
Entry rule: numbers only, all in nM.

Cc1cc(=O)oc2c1ccc1oc(=N)c(C(=O)NCc3ccccc3)cc12: 2130
Cc1cc(=O)oc2c1ccc1oc(=N)c(C(=O)N3CCCC3)cc12: 984
Cc1cc(=O)oc2c1ccc1oc(=N)c(C(=O)NC(C)c3ccccc3)cc12 (centres undefined): 247
Cc1cc(=O)oc2c1ccc1oc(=N)c(C(=O)NC3CCCCC3)cc12: 27
Cc1cc(=O)oc2c1ccc1oc(=N)c(C(=O)NC3CC3)cc12: 910
Cc1cc(=O)oc2c1ccc1oc(=N)c(C(=O)NCc3cccc(Cl)c3)cc12: 19
CNC(=O)c1cc2c(ccc3c(C)cc(=O)oc32)oc1=N: 1400
Cc1cc(=O)oc2c1ccc1oc(=N)c(C(=O)NCc3cccc(Br)c3)cc12: 3

We next turn to a different compound, shown below.
What does the record list as IC50 for "COc1ccc(CNC(=O)c2cc3c(ccc4c(C)cc(=O)oc43)oc2=N)c(OC)c1" ?
357

Origin of measurements: ChEMBL document CHEMBL3745716
